Taken from patent US20030225152A1.

# system: cytoplasmic domain of the human VEGF receptor (VEGFR-2) (Homo sapiens)
# Construct: The cytoplasmic domain of the human VEGF receptor (VEGFR-2) was expressed as a Histidine-tagged fusion protein; Histidine tag
# run description: KDR Assay
# experimental parameters: His-VEGFR-2; 3.6 μM ATP
pIC50: −log10 of the molar value.
Listed next: entries and their corresponding pIC50.
measured parameter: pIC50

INSERT INTO results (molecule, reported_measurement) VALUES
  ('COc1ccc(NC=C2C(=O)Nc3ccc(Cl)cc32)cc1O', 6.28),
  ('O=C(O)Cc1ccc(NC=C2C(=O)Nc3ccc(F)cc32)cc1', 6.08),
  ('O=C1Nc2cccc(F)c2C1=CNc1ccc(CCN2CCCCC2)cc1', 6.96),
  ('O=C(O)CCc1cccc(NC=C2C(=O)Nc3ccc(F)cc32)c1', 6.15),
  ('O=C1Nc2ccccc2C1=CNc1ccc(CCN2CCOCC2)cc1', 6.21),
  ('O=C1Nc2cc(F)ccc2C1=CNc1ccc(N2CCOCC2)cc1', 7.10),
  ('CCN(CC)Cc1cc(NC=C2C(=O)Nc3ccccc32)ccc1O', 6.15),
  ('Nc1cccc(NC=C2C(=O)Nc3ccccc32)c1', 6.34),
  ('COc1cccc(-c2ccc3c(c2)NC(=O)C3=CNc2ccc(OCCCN3CCCCC3)cc2)c1', 6.66),
  ('Cc1cccc2c1C(=CNc1ccc(N)cc1)C(=O)N2', 6.46),
  ('CCN(CC)CCCOc1ccc(NC=C2C(=O)Nc3ccc(Cl)cc32)cc1', 6.80),
  ('CC(C)(C)c1ccc(NC=C2C(=O)Nc3ccccc32)cc1', 6.10),
  ('O=C1Nc2ccccc2C1=CNc1ccc2[nH]ccc2c1', 6.24),
  ('CN1CCN(CCCOc2ccc(NC=C3C(=O)Nc4ccccc43)cc2)CC1', 6.55),
  ('CCN(CC)CCCOc1ccc(NC=C2C(=O)Nc3ccccc32)cc1', 6.48),
  ('Cc1cccc2c1C(=CNc1ccc(OCCN3CCCC3)cc1)C(=O)N2', 6.96),
  ('CN1CCCC(COc2ccc(NC=C3C(=O)Nc4ccccc43)cc2)C1 (stereo not drawn)', 6.34),
  ('Cc1cccc2c1C(=CNc1cccc(O)c1)C(=O)N2', 6.55),
  ('COc1ccc(NC=C2C(=O)Nc3cccc(C)c32)cc1', 6.74),
  ('Cc1cccc2c1C(=CNc1ccc(C(C)C)cc1)C(=O)N2', 6.23),
  ('Cc1cccc2c1C(=CNc1ccc3cc[nH]c3c1)C(=O)N2', 6.70),
  ('O=C1Nc2ccc([N+](=O)[O-])cc2C1=CNc1ccc(N2CCOCC2)cc1', 6.01),
  ('O=C1Nc2ccc(F)cc2C1=CNc1ccc2cn[nH]c2c1', 6.49),
  ('Cc1ccc(NC=C2C(=O)Nc3cccc(C)c32)cc1O', 6.17),
  ('COc1ccc(NC=C2C(=O)Nc3ccccc32)cc1', 6.16),
  ('Cc1cccc2c1C(=CNc1ccc(NCCCN3CCOCC3)cc1)C(=O)N2', 6.85),
  ('CCN(CC)CCCOc1ccc(NC=C2C(=O)Nc3cccc(F)c32)cc1F', 6.64),
  ('O=C1Nc2cc(F)ccc2C1=CNc1ccc(CCN2CCOCC2)cc1', 7.00),
  ('O=C1Nc2ccccc2C1=CNc1ccc(OCCCCl)cc1', 6.33),
  ('O=C1Nc2ccccc2C1=CNc1ccc(S(=O)(=O)NCCO)cc1', 6.23),
  ('Cc1cccc2c1C(=CNc1ccc(CN3CCOCC3)cc1)C(=O)N2', 7.05),
  ('O=C1Nc2ccccc2C1=CNc1cccc(CO)c1', 6.21),
  ('O=C1Nc2ccccc2C1=CNc1ccc(OCCCN2CCSCC2)cc1', 6.54);

----------
Listed next: entries and their corresponding Miles Assay % inhibition.
# Test system: VEGF-induced EBD extravasation
# run description: VEGF-induced Dermal Extravasation in Guinea Pig (Miles Assay)
# Type: in vivo
# experimental parameters: 75 mg/kg, corn oil, oral
measured parameter: Miles Assay % inhibition

INSERT INTO results (molecular_string, system, reported_measurement) VALUES
  ('O=C1Nc2cc(F)ccc2C1=CNc1ccc(OCCCCN2CCCCC2)cc1', 'VEGF-induced EBD extravasation', '45%'),
  ('O=C1Nc2cc(F)ccc2C1=CNc1ccc(OCCCN2CCCCC2)cc1', 'VEGF-induced EBD extravasation', '100%'),
  ('O=C1Nc2ccccc2C1=CNc1ccc(OCCCCN2CCCCC2)cc1', 'VEGF-induced EBD extravasation', '84%'),
  ('Cc1cccc2c1C(=CNc1ccc(OCCCN3CCCCC3)cc1)C(=O)N2', 'VEGF-induced EBD extravasation', '60%');

----------
# system: cytoplasmic domain of the human VEGF receptor (VEGFR-2) (Homo sapiens)
# Construct: The cytoplasmic domain of the human VEGF receptor (VEGFR-2) was expressed as a Histidine-tagged fusion protein; Histidine tag
# run description: KDR Assay
# experimental parameters: His-VEGFR-2; 3.6 μM ATP
pIC50: −log10 of the molar value.
measured parameter: pIC50

INSERT INTO assay_data (molecular_string, system, measured_parameter, reported_measurement) VALUES
  ('O=C1Nc2cccc(F)c2C1=CNc1ccc(OCCN2CCCC2)cc1', 'cytoplasmic domain of the human VEGF receptor (VEGFR-2) (Homo sapiens)', 'pIC50', 6.48),
  ('O=C1Nc2ccccc2C1=CNc1ccc(OCCCN2CCOCC2)cc1', 'cytoplasmic domain of the human VEGF receptor (VEGFR-2) (Homo sapiens)', 'pIC50', 6.47),
  ('CC(C)c1ccc(NC=C2C(=O)Nc3ccccc32)cc1', 'cytoplasmic domain of the human VEGF receptor (VEGFR-2) (Homo sapiens)', 'pIC50', 6.24);

----------
# system: cytoplasmic domain of the human VEGF receptor (VEGFR-2) (Homo sapiens, UniProt P35968)
# Construct: The cytoplasmic domain of the human VEGF receptor (VEGFR-2) was expressed as a Histidine-tagged fusion protein; Histidine tag
# Sequence (P35968 786-1356): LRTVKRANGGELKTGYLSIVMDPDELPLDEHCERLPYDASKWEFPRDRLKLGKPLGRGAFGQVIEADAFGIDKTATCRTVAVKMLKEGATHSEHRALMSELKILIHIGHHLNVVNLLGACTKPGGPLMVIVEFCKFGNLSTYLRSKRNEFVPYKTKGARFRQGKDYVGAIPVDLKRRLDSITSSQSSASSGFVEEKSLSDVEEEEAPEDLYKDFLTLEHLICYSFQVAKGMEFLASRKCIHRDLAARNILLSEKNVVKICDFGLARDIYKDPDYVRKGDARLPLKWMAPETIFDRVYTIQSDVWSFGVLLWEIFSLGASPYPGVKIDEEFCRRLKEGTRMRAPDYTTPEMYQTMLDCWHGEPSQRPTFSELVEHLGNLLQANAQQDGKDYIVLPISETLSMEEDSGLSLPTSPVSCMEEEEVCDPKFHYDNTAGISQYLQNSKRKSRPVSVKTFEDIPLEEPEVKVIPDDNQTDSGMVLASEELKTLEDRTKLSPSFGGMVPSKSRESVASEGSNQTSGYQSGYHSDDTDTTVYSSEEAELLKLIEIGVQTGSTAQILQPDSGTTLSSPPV
# run description: KDR Assay
# experimental parameters: His-VEGFR-2; 3.6 μM ATP
pIC50: −log10 of the molar value.
measured parameter: pIC50

INSERT INTO results (molecular_string, system, measured_parameter, reported_measurement) VALUES
  ('O=C1Nc2ccccc2C1=CNc1ccc(OCCCCN2CCCCC2)cc1', 'cytoplasmic domain of the human VEGF receptor (VEGFR-2) (Homo sapiens, UniProt P35968)', 'pIC50', 6.62),
  ('Cc1cccc2c1C(=CNc1ccc(CCO)cc1)C(=O)N2', 'cytoplasmic domain of the human VEGF receptor (VEGFR-2) (Homo sapiens, UniProt P35968)', 'pIC50', 6.70),
  ('O=C1Nc2cc(F)ccc2C1=CNc1ccc(OCCN2CCCCC2)cc1', 'cytoplasmic domain of the human VEGF receptor (VEGFR-2) (Homo sapiens, UniProt P35968)', 'pIC50', 6.77),
  ('O=C1Nc2ccccc2C1=CNc1ccc(CN2CCCCC2)cc1', 'cytoplasmic domain of the human VEGF receptor (VEGFR-2) (Homo sapiens, UniProt P35968)', 'pIC50', 6.85),
  ('CSc1ccc(NC=C2C(=O)Nc3ccc(Cl)cc32)cc1', 'cytoplasmic domain of the human VEGF receptor (VEGFR-2) (Homo sapiens, UniProt P35968)', 'pIC50', 6.14),
  ('O=C1Nc2ccccc2C1=CNc1ccc(OC(F)F)cc1', 'cytoplasmic domain of the human VEGF receptor (VEGFR-2) (Homo sapiens, UniProt P35968)', 'pIC50', 6.26),
  ('O=C1Nc2cc(F)ccc2C1=CNc1ccc(OCCCCN2CCCCC2)cc1', 'cytoplasmic domain of the human VEGF receptor (VEGFR-2) (Homo sapiens, UniProt P35968)', 'pIC50', 6.70),
  ('O=C(O)CCc1ccc(NC=C2C(=O)Nc3ccc(F)cc32)cc1', 'cytoplasmic domain of the human VEGF receptor (VEGFR-2) (Homo sapiens, UniProt P35968)', 'pIC50', 6.44),
  ('N#Cc1ccc(NC=C2C(=O)Nc3ccccc32)cc1', 'cytoplasmic domain of the human VEGF receptor (VEGFR-2) (Homo sapiens, UniProt P35968)', 'pIC50', 6.17),
  ('COc1ccc(NC=C2C(=O)Nc3cccc(C)c32)cc1O', 'cytoplasmic domain of the human VEGF receptor (VEGFR-2) (Homo sapiens, UniProt P35968)', 'pIC50', 6.51),
  ('O=C1Nc2cccc(F)c2C1=CNc1ccc(CN2CCCCC2)cc1', 'cytoplasmic domain of the human VEGF receptor (VEGFR-2) (Homo sapiens, UniProt P35968)', 'pIC50', 6.29),
  ('Cc1cccc2c1C(=CNc1ccc3c(c1)OCO3)C(=O)N2', 'cytoplasmic domain of the human VEGF receptor (VEGFR-2) (Homo sapiens, UniProt P35968)', 'pIC50', 6.28),
  ('Cc1cccc2c1C(=CNc1ccc(OCCCCN3CCCCC3)cc1)C(=O)N2', 'cytoplasmic domain of the human VEGF receptor (VEGFR-2) (Homo sapiens, UniProt P35968)', 'pIC50', 7.05),
  ('COc1cccc(NC=C2C(=O)Nc3ccccc32)c1', 'cytoplasmic domain of the human VEGF receptor (VEGFR-2) (Homo sapiens, UniProt P35968)', 'pIC50', 6.19),
  ('Cc1cccc2c1C(=CNc1ccc(C#N)cc1)C(=O)N2', 'cytoplasmic domain of the human VEGF receptor (VEGFR-2) (Homo sapiens, UniProt P35968)', 'pIC50', 6.34),
  ('O=C(O)CCc1cccc(NC=C2C(=O)Nc3ccc(Cl)cc32)c1', 'cytoplasmic domain of the human VEGF receptor (VEGFR-2) (Homo sapiens, UniProt P35968)', 'pIC50', 6.28);
